B1: ACSBG2 (parent)
chain: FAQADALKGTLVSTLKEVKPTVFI

variants of: B1; assay: protein stability index of a GFP-peptide fusion (GPS, HEK-293T) (PSI 1-6); higher = more stable; conditions: c terminus: a fixed tail appended;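 note: lentivirally expressed fusions sorted by FACS into six bins by GFP to DsRed ratio, PSI derived from sequencing read proportions per bin multiplied by bin number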
Catalogue of variants with associated protein stability index
Give only the figure.

sequence-variant	reported-value
L15E	2.39
A6Q	1.54
G9L	2.72
G9K	2.32
V12K	3.87
I24A	1.98

Indicate its recorded protein stability index; the variant in question is T10D
2.07

// fetch protein stability index given entry A6E
1.95

Return value of protein stability index for input A4Q , no commentary.
1.44

Give protein stability index for P20W
2.33

Fill in protein stability index for record V12G
1.95

For the variant G9E , give its reported protein stability index.
1.5

Answer with the recorded protein stability index for the variant listed here: A6W
3.31
